Taken from PubChem BioAssay.

Provide the recorded composite z-score for the entries that follow.
system: Albumin (Bos taurus) (UniProt P02769)
Sequence (P02769 whole entry, looked up): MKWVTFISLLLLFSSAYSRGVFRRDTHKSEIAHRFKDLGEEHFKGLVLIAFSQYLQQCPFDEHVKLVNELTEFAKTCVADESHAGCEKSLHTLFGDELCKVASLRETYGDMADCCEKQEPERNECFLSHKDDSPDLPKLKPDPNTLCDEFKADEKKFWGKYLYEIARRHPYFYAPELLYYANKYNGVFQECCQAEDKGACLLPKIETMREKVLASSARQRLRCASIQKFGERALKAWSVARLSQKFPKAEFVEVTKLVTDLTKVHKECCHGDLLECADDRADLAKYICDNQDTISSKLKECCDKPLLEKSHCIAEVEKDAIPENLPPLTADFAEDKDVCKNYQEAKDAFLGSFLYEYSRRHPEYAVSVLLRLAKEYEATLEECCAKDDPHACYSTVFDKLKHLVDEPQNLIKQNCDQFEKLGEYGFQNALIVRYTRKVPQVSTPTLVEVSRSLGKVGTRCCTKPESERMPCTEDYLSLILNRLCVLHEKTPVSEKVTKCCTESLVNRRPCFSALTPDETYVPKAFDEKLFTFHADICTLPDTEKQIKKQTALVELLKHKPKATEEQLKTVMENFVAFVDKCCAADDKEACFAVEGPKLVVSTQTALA
experiment.notes: bovine serum albumin binders on microarray, profiling panel, artefact control for SMM control protein annotation, biochemical, small-molecule microarray, Alexa647 label, 635/667 nm fluorescence (AID 1118);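 also: score merges 667 nm emission intensity and signal-to-noise per printed compound spot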
condition.notes: BSA-A647 binding, fluorescence 635 nm, higher = more signal
Numbers only.

# annotated cases, reported composite z-score shown
# compound, composite z-score
measured = [
    ("[N-]=[N+]=NCc1ccccc1C[C@]1(C(=O)N2CCCCC2)N=C(c2ccc(OCCCO)cc2)O[C@H]1c1ccccc1CN=[N+]=[N-]", 0.899),
    ("CC(C)CNC(=O)[C@@]1(C)c2ccccc2C(=O)N(Cc2ccc(OC(F)(F)F)cc2)[C@H]1c1ccc(CO)cc1", -0.2),
]

Query compound follows.
Request: Given the compound CN1CCC(CCCO)=CC1C1CC1 (stereo not drawn) , what is its reported composite z-score?
Response: -0.958

###

Provide the recorded composite z-score for the entries that follow.
experiment.notes: small-molecule microarray binders of probe aNog, primary screen, biochemical, biotinylated probe, 635/667 nm fluorescence (AID 1115);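 also: probe is biotinylated aNog protein used at 0.15 µg/mL for 1 h at 4 C; z-score combines 667 nm fluorescence of each spot with its signal to noise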
condition.notes: higher = more signal
One number for each entry.

# annotated cases, reported composite z-score shown
# compound, composite z-score
data = [
    ("C=CC[C@]1(C(=O)O)N=C(c2ccc(OCCCO)cc2)O[C@H]1c1ccccc1", 0.448),
    ("C=C(CCCC)C(=O)CC[C@@H](OC(=O)c1cccnc1)c1cccc(OCCO)c1", 0.314),
    ("CCN1C(C)=C(C(=O)OC)[C@@H](c2ccccc2)N2C(=O)[C@@]3(C(=O)OC)O[C@@]12[C@@H]1C(=O)CCC[C@@H]13", -0.43),
    ("O=C1OCCC=C[C@H]2OC34C=CCN(Cc5ccccc5)C(=O)[C@H]3N(CCO)C(=O)[C@@H]4C12 (stereo partly drawn)", -0.224),
    ("O=[N+]([O-])c1ccc(C[n+]2ccc3ccc(O)cc3c2)o1", -0.206),
]

# batch size: 5; output composite z-score per entry
1. COCCOC(=O)N1C(=O)[C@@]2(c3cc(C#CCNC(N)=O)ccc31)[C@H](c1ccc(OCCO)cc1)N1[C@H](c3ccccc3)[C@H](c3ccccc3)OC(=O)[C@H]1[C@@H]2C(=O)N1CCCCCCC1
2. COc1cc2c(cc1OC)CN(C(=O)[C@H]1[C@@H]3C(=O)O[C@@H](c4ccccc4)[C@@H](c4ccccc4)N3[C@@H](c3ccccc3OCCO)[C@]13C(=O)Nc1ccc(C#CC4(O)CCCCCC4)cc13)CC2
3. COCCCNC(=O)[C@@]1(c2ccc([N+](=O)[O-])cc2)CC(=O)N(C2CCCCC2)[C@@H]1c1ccc(CO)cc1
4. C=CCC(OC(C)=O)[C@@H]1[C@@H](N(Cc2ccc(-c3cccc(C(F)(F)F)c3)o2)C(=O)Cc2ccc(F)cc2)c2cc(OCCCO)ccc2N1C(=O)c1ccc(-c2ccccc2)cc1 (stereo partly drawn)
5. C=CC[C@]1(C(=O)NCC(O)CO)N=C(c2ccc(OCCCO)cc2)O[C@H]1c1ccccc1 (stereo partly drawn)

Response:
1. 0.401
2. -0.356
3. -0.811
4. 0.172
5. 0.402

# batch size: 2; output composite z-score per entry
1. CCOC(=O)C[C@H]1[C@H](OC(=O)c2ccccc2-c2ccccc2)[C@@H](NC(=O)C2CCCCC2)c2cc(OCCCO)ccc2N1C(=O)c1ccccc1
2. CC(C)(C)OC(=O)CC[C@]1(C(=O)N2CCCCC2)N=C(c2ccc(OCCCO)cc2)O[C@H]1c1ccccc1

Response:
1: -0.0502; 2: 0.248

# batch size: 6; output composite z-score per entry
1. C=CCNC(=O)[C@H]1[C@@H]2C(=O)O[C@@H](c3ccccc3)[C@@H](c3ccccc3)N2[C@@H](c2ccccc2OCCO)[C@]12C(=O)N(C(=O)OCCOC)c1ccc(C#CCC(C(=O)OC)C(=O)OC)cc12
2. CCN1C(C)=C(C(=O)OC)[C@@H](c2ccccc2)N2C(=O)[C@@]3(C(=O)OC)O[C@@]12[C@@H]1C(=O)N(c2ccccc2)C(=O)[C@@H]13
3. O=C(CS)NCCCCCNC(=O)[C@H]1C[C@H]2C(=O)N[C@@H](Cc3ccccc3)C(=O)N2[C@H]1c1ccc(O)cc1
4. O=C1C2C=CC(C(O)C#Cc3ccccc3)N(Nc3ccccc3)C2C(=O)N1c1ccccc1 (stereo not drawn)
5. O=C1C[C@@](C(=O)NC2CC2)(c2ccc([N+](=O)[O-])cc2)[C@@H](c2ccc(CO)cc2I)N1CC12CC3CC(CC(C3)C1)C2
6. C=CC[C@]1(C(=O)O)N=C(c2ccc(OCCCO)cc2)O[C@H]1c1ccccc1N=[N+]=[N-]

Response:
1: 0.419; 2: 0.221; 3: 0.185; 4: 0.839; 5: -0.0719; 6: -0.0069

###

experiment.notes: binders of probe aFGF10 on microarray, primary screen, stem cell growth factor project, biochemical, small-molecule microarray, fluorescence 635/667 (AID 1071);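 also: score merges 667 nm spot intensity and signal to noise from triplicate slides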
condition.notes: higher = more signal
value.kind: composite z-score
One number for each entry.

# molecule.smiles, result
records = [
    ("CC(C)C[C@@H]1NC(=O)[C@H]2C[C@@H](C(=O)NCCCCCC[N+](C)(C)C)[C@@H](c3ccc(O)cc3)N2C1=O", -0.615),
]

# batch size: 6; output composite z-score per entry
1. CO[C@H]1COC(=O)[C@@H](C)COC(=O)[C@H](Cc2ccccc2)NC(=O)CC=C[C@H]1C
2. CC(C)[Si]1(C(C)C)OCc2cc(C3CC3)nc(-c3ccccc3)c21
3. COc1ccc([Si](C)(C)[C@H]2[C@H](CC(=O)N(CCO)Cc3ccccc3)O[C@@]3(C(=O)N(C)c4ccccc43)[C@@H]2C)cc1
4. O=C1O[C@@H](c2ccccc2)[C@@H](c2ccccc2)N2[C@@H](c3ccc(O)cc3)[C@]3(C(=O)Nc4ccccc43)[C@@H](C(=O)N3CCN(c4ncccn4)CC3)[C@H]12
5. COCCOC(=O)N1C(=O)[C@@]2(c3cc(C#CC4=CCCCC4)ccc31)[C@H](C(=O)NC[C@H](O)c1ccccc1)[C@H]1C(=O)O[C@H](c3ccccc3)[C@H](c3ccccc3)N1[C@@H]2c1ccccc1OCCO
6. O=C1c2ccccc2[C@@]2(Cc3ccccc3N(CC(F)(F)F)C2=O)[C@H](c2ccc(CO)cc2)N1C1CCCCC1

Response:
1: 0.131; 2: -1.2; 3: 0.877; 4: 0.0271; 5: 0.467; 6: 0.354

# batch size: 2; output composite z-score per entry
1. CC(C)[Si](OCCCNS(=O)(=O)c1ccc(Br)cc1)(C(C)C)C(C)C
2. C=C(CCCC)/C(=C/C[C@@H](OC(=O)c1ccncc1)c1cccc(OCCO)c1)c1cc(C(=O)OC)ccc1OC

Response:
0.962
0.291

###

Provide the recorded z-score for the entries that follow.
experiment.notes: inhibitors of hydroxyurea-induced Chk1 phosphorylation, primary screen, imaging, HeLa, phospho-Chk1 antibody, percent positive cells (AID 1186)
condition.notes: hydroxyurea-induced phospho-Chk1 immunofluorescence imaging, higher = more signal
Answers are plain numbers.

# annotated cases, reported z-score shown
# molecule, z-score
data = [
    ("CO[C@H]1O[C@H](CO)[C@@H](OC(=O)Nc2ccccc2)[C@H](OC(=O)Nc2ccc3c(c2)OCO3)[C@@H]1OC(=O)Nc1ccc2c(c1)OCO2", 0.149),
    ("O=C(NCC(O)CO)[C@]1(Cc2ccccc2)N=C(c2ccc(OCCCO)cc2)O[C@@H]1c1ccccc1 (some centres undefined)", -0.707),
    ("C=C(/C(=C/C[C@@H](OC(=O)c1ccncc1)c1ccc(CO)o1)c1cnc2ccccc2c1)C(C)C", -0.33),
]

Request: Given the molecule `CCCNC(=O)[C@@H]1c2ccccc2C(=O)N(C2CCCCC2)[C@H]1c1ccc(CO)cc1` , what is its reported z-score?
Response: 0.108

###

experiment.notes: Plasmodium falciparum growth inhibition, primary screen, strain 3D7, DAPI fluorescence, 100 nL (AID 1184);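 also: parasites grown inside human red blood cells in medium with human serum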
condition.notes: P. falciparum 3D7 growth, 3 d, higher = more signal
value.kind: z-score

# molecule.smiles, value.kind, result
records = [
    ("COc1cc2c(cc1OC)CN(C(=O)[C@@H]1[C@H]3C(=O)O[C@H](c4ccccc4)[C@H](c4ccccc4)N3[C@H](c3ccccc3OCCO)[C@@]13C(=O)Nc1ccccc13)CC2", "z-score", -2.18),
    ("Cc1ccc(S(=O)(=O)N2[C@@H](c3ccccc3)C(C(=O)O)=CC[C@H]2c2ccccc2)cc1", "z-score", -1.02),
    ("Cc1ccc(S[C@]2(C(=O)O)CC(=O)N(Cc3cc(C(F)(F)F)cc(C(F)(F)F)c3)[C@@H]2c2ccc(CO)cc2I)cc1", "z-score", -0.48),
]

Request: Given the compound `C=C(COC)/C(=C/C[C@H](OC(C)=O)c1ccc(OCCO)cc1)c1cnc2ccccc2c1` , what is its reported z-score?
Response: -3.08
